runDescription: In vivo antisecretory activity, gastric secretion in pylorus ligated rats (acid output)
Design: species or system male Charles River Sprague Dawley derived rats
conditionContext: Rattus norvegicus, 4 h; 20 mpk, po; four hours after ligation; read-out: Pylorous Ligated Rats, effect on acid output compared to control
Counter-ions that a name gives are not always drawn.
propertyName: change in vivo at 20 mg/kg (%)
Please state the figure in %; there is no need to write the unit.

Qu. What change in vivo at 20 mg/kg value was documented for this compound, CCCN(CCC)CCCCOc1ccc(-c2ccccc2)cc1.Cl [Example 7, hydrochloride] ?
Ans. -45

Continuing:
Qu. What change in vivo at 20 mg/kg value was documented for this compound, c1ccc(Cc2ccc(OCCCn3ccnc3)cc2)cc1 [Example 12, hydrochloride] ?
Ans. -51

Qu. What change in vivo at 20 mg/kg value was documented for this compound, Cl.c1ccc(-c2ccc(OCCCCCn3ccnc3)cc2)cc1 [Example 9, hydrochloride] ?
Ans. -54

Qu. What change in vivo at 20 mg/kg value was documented for this compound, Cl.O=C(c1ccc(Cl)cc1)c1ccc(OCCCn2ccnc2)cc1 [Example 11, hydrochloride] ?
Ans. -35

Qu. What change in vivo at 20 mg/kg value was documented for this compound, C(=C\c1ccc(OCCCn2ccnc2)cc1)/c1ccccc1.Cl [Example 2, hydrochloride] ?
Ans. -4

Qu. What change in vivo at 20 mg/kg value was documented for this compound, C(=C\c1ccc(OCCCCn2ccnc2)cc1)/c1ccccc1 [Example 1, hydrochloride] ?
Ans. -32

Qu. What change in vivo at 20 mg/kg value was documented for this compound, Clc1cccc(/C=C/c2ccc(OCCCCn3ccnc3)cc2)c1 [Example 5, hydrochloride] ?
Ans. -12

Qu. What change in vivo at 20 mg/kg value was documented for this compound, Cl.c1ccc(-c2ccc(OCCCn3ccnc3)cc2)cc1 [Example 8, hydrochloride] ?
Ans. -33

Qu. What change in vivo at 20 mg/kg value was documented for this compound, Cl.c1ccc(-c2ccc(OCCCCn3ccnc3)cc2)cc1 [Example 6, hydrochloride] ?
Ans. -24

Qu. What change in vivo at 20 mg/kg value was documented for this compound, CCCN(CCC)CCCOc1ccc(/C=C/c2cccc(OC)c2)cc1 [Example 3, hydrochloride] ?
Ans. -92

====

System: histamine stimulated parietal cell
runDescription: Isolated parietal cell assay, inhibition of 14C-aminopyrine accumulation, histamine stimulated
Type: cell-based, rabbit
conditionContext: Oryctolagus cuniculus, 20 min, read-out: Isolated Parietal Cells IC50 vs his
Experimental: The isolated parietal cell assay was conducted using the procedures of Batzri, S. et al., Biochemica et Biophysica Acta 508, 328 (1978) and Soll, A.H. Am. J. Physiol. 238, G366 (1980). Basically, parietal cells were isolated from the fundic mucosa of rabbit stomachs by a four-stage collagenase digestion process. […] The pellets were solubilized with Protosol (New England Nuclear) and radioactivity determined by liquid scintillation spectrometry. […]
propertyName: pIC50
Kindly note that pIC50 refers to -log10 of the concentration in mol/L and answer with the value alone.

Qu. What pIC50 value was documented for this molecule, CN/C(=N/CCSCc1nc[nH]c1C)NC#N [Cimetidine, cimetidine, reference compound] ?
Ans. 6.09
